Data origin, for the record: ChEMBL document CHEMBL1155110

Sequence of the target: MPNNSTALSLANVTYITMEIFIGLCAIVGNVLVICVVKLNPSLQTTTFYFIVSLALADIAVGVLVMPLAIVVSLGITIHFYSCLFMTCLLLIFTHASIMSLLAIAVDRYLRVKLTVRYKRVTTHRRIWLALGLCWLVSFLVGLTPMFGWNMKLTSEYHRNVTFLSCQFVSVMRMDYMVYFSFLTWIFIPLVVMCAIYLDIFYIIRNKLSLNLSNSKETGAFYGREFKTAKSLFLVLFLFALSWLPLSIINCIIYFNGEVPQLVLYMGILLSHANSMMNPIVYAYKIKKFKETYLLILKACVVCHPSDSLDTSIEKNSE
quantity: pKi
Hey, just a heads up that pKi is the negative log base 10 of the concentration in molar.

IN: Entry OC[C@H]1O[C@@H](n2cnc3c(NCc4ccco4)ncnc32)[C@H](O)[C@@H]1O [KINETIN RIBOSIDE] has what pKi?
OUT: 7.66
